Test: cell-permeable autofluorescent compounds in GFP channel, dose response, artefact control, imaging, high-content imaging (AID 2124);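 also: cells exposed to compound for 48 hours before fixing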
Details: cells, GFP-channel autofluorescence, high-content imaging; cell count; at 10 µM
Results filed as inconclusive are left out.
observation type: cell count (cells)
Respond with the bare value in cells.

Query: Which cell count reading was recorded for the compound O=C1N/C(=N/Nc2ccccc2)S/C1=C\c1ccccc1 ?
Response: 3090

Query: Moving on to the next compound: Cc1ccc(-c2cc(N)n(-c3ccccc3)n2)cc1
Response: 3090

Query: Moving on to the next compound: Cc1c(C(c2ccc([N+](=O)[O-])cc2)c2c(C)n(C)n(-c3ccccc3)c2=O)c(=O)n(-c2ccccc2)n1C
Response: 3040
